B1: TPR 5TU (parent)
chain: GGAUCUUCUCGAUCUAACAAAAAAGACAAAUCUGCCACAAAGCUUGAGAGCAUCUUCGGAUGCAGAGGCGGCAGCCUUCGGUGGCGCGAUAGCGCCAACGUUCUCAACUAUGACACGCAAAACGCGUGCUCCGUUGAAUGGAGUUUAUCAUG

- Variants of: B1
- test.protocol: polymerase ribozyme fitness, log enrichment relative to wild type (log ratio); higher = more active; in vitro selection for triplet polymerase activity
Variants at the floor of the assay were thinned out.

# variant.code, censor.symbol, polymerase ribozyme fitness (log ratio)
records = [
    ("A49C A64U C87A U104G G143A", "≤", -4.2),
    ("U13C A39C C72A C76G C99G G140U A147C", "≤", -4.2),
    ("G25C C54U A73G G84A C85A A89C", "≤", -4.2),
    ("A12G U44A G46A A66C G86A C93A A97U A138G A142G", "≤", -4.2),
    ("C54A A91G U104G U127A G152A", "≤", -4.2),
    ("A30C C95G C108U C132G G133U", "≤", -4.2),
    ("G83C G136U", "=", -2.46),
    ("U7C C8G A30C C85G U134A", "≤", -4.2),
    ("G50C A98U U101A", "≤", -4.2),
    ("C18U C57A A115C G143U U148A", "≤", -4.2),
    ("U7G A17C A24U A52G A64G C72G C85U G88U G92U C93G A119U", "≤", -4.2),
    ("G128C", "=", -2.21),
    ("U77G G92U", "=", -3.92),
    ("C75U G136A", "=", 1.26),
    ("A39G A47G G83A A142G", "≤", -4.2),
    ("G94C G133A", "=", -4.02),
    ("C96A U145A", "=", 0.431),
    ("C27U U55A G68U C85G", "≤", -4.2),
    ("C18G A21U A29C A37U C57U C95U U127G U148G", "=", -3.75),
    ("U45A A64U G67C G74A G83A A120G", "≤", -4.2),
    ("A20U U33C G71A U104A A106G A107G A137C", "≤", -4.2),
    ("A64G A91C A115G U145C", "=", -3.96),
    ("A19U U144A", "=", -0.138),
    ("A20U C87G A91U", "≤", -4.2),
    ("U56A C69A", "=", -1.46),
    ("U6A A21U U31A G74A", "≤", -4.2),
    ("C76G G83A U139A U146C U148C", "≤", -4.2),
    ("C54U G92U A147U", "=", 0.0812),
    ("A12U G50A U53A C87U G136A", "≤", -4.2),
    ("A22U C54A A91G", "=", -3.53),
    ("C85U A115U C118A A120G", "=", -3.37),
    ("G59U C103U", "=", -0.503),
    ("G59C C76A C87G", "≤", -4.2),
    ("C5G A39G C51U A106G", "≤", -4.2),
    ("C76G C93U", "≤", -4.2),
    ("C36U C51G A107U G128A U139G", "≤", -4.2),
    ("A40U G83C C96A G152A", "=", -3.95),
    ("C10U U55G", "=", -3.19),
    ("U134G", "=", -2.37),
    ("A52G C69U G143A", "=", -2.71),
    ("G59A G83C A89U", "=", -1.39),
    ("A20U U55A", "=", -2.07),
    ("C57U C76G A115C A150G", "≤", -4.2),
    ("G83A C105U A110G U134C", "=", -3.98),
    ("C54A U82C U146C", "=", -0.537),
    ("A41C A47C G88U A97U", "=", -4.03),
    ("A47G U55A C116G", "=", -0.139),
    ("A39G A40G A41U G58A G59U U61A C79A U144A G152C", "≤", -4.2),
    ("A21U G50C G84U", "=", -4.11),
    ("C54G G86U", "=", -3.24),
    ("C105U U135A", "=", 0.0587),
    ("U55A G100C G126U G128C", "≤", -4.2),
    ("U15A A29U G59U C95U A120G U127G U135C G143A", "≤", -4.2),
    ("C54U C57U G100C", "≤", -4.2),
    ("U53A C76U", "=", -1.36),
    ("G50C A66G C96U U146G", "≤", -4.2),
    ("A20C C54U G70C C93A", "≤", -4.2),
    ("A20G U77A C85U C105U U135A A138G", "≤", -4.2),
    ("C10G A52G U56A C96U G140U", "≤", -4.2),
    ("G68A A91U A107C A110G G141A", "≤", -4.2),
    ("G59A U61C", "=", -0.735),
    ("A20C A52G C79A G133C U146G", "≤", -4.2),
    ("U15C C18A G83A C93U A122U", "=", -1.53),
    ("U56G A142U", "=", -0.88),
    ("A37U A60G A91G G143C", "≤", -4.2),
    ("U102G C116G", "=", -1.67),
    ("A12G G70A C118U", "=", -3.56),
    ("G11U G25C C32U G50C A60G C95U", "≤", -4.2),
    ("A19U A24U A30U U55A C93G C103G A106C C132G U146C", "≤", -4.2),
    ("G11A U61A C85A A122C A150C", "≤", -4.2),
    ("G50A A52G C76U A98G C123G", "=", -2.81),
    ("C54U A60C C75A A91U C96U A97G A107C G136A A137U", "≤", -4.2),
    ("C8U G11C A23C A60G G94U G136U U144A", "≤", -4.2),
    ("C10G C18G A21C G25A G65A C79A U104G", "≤", -4.2),
    ("C93U G143U", "=", -3.38),
    ("A73G C95G C96U G124U C149U G152A", "≤", -4.2),
    ("C35U C51U A52C C76G C93G A115U", "≤", -4.2),
    ("A12G U78G A89G C95U U109C U145C A150G", "≤", -4.2),
    ("A60U C85G", "=", -3.14),
]
